src = ChEMBL document CHEMBL1137618

target: Neuronal acetylcholine receptor; alpha4/beta2 (Homo sapiens, UniProt P17787+P43681); experiment: Agonist activity at recombinant human alpha-4-beta-2 nAChR expressed in HEK293 cells assessed as induction of calcium influx by FLIPR assay; assay type: functional, cell-based; details: read-out: Log EC50 (converted)
Sequence (P17787 whole entry): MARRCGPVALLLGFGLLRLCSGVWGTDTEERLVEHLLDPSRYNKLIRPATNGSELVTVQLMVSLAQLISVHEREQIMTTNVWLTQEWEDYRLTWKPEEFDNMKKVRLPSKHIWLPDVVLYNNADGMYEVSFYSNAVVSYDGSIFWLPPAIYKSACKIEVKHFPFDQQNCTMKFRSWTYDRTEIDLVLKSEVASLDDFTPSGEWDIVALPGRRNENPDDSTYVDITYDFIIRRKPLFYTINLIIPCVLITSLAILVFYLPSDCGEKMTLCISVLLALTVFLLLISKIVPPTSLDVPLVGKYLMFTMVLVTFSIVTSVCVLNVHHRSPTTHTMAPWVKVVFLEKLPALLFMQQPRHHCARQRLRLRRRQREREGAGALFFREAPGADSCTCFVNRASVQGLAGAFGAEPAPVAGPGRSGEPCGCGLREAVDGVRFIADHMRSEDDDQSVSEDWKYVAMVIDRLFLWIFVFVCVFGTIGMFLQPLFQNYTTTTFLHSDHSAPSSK
Sequence (P43681 whole entry): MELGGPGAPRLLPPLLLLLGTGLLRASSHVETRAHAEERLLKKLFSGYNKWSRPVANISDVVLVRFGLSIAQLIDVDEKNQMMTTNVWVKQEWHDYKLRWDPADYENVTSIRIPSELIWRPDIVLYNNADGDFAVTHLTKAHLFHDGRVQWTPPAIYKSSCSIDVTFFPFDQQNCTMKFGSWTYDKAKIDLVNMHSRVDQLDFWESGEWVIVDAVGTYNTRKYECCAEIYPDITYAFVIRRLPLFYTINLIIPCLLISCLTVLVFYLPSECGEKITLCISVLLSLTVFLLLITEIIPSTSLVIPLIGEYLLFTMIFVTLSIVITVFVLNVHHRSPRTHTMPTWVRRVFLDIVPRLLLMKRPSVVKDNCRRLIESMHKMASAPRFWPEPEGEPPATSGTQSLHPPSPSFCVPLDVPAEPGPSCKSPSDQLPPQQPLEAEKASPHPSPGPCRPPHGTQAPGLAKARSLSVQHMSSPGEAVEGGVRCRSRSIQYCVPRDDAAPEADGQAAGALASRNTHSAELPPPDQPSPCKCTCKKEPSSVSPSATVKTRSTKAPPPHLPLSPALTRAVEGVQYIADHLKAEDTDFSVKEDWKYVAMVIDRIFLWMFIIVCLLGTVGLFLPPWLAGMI
measure: log10 EC50 (log10 of the value in µM)
Please be aware that the numbers have been log10-transformed from EC50 in µM.

Examples with their reported log10 EC50 follow.
Brc1cc(N2C[C@H]3CNC[C@H]32)cnc1Br :: -0.17
N#Cc1cncc(N2C[C@@H]3CNC[C@@H]32)c1 :: 0.96
Brc1cncc(N2C[C@@H]3CN[C@@H]3C2)c1 :: 0.79

Request: Look at this molecule and give its reported log10 EC50. `N#Cc1cc(N2C[C@H]3CNC[C@H]32)cnc1Br`
Response: -0.49

Request: Same lookup for `N#Cc1cncc(N2C[C@H]3CN[C@H]3C2)c1` , please.
Response: -0.38

Request: Same lookup for `Clc1cncc(N2C[C@H]3CNC[C@H]32)c1` , please.
Response: 0.86

Request: Same lookup for `c1cncc(N2C[C@@H]3CNC[C@@H]32)c1` , please.
Response: 0.43

Request: Same lookup for `C#Cc1cncc(N2C[C@H]3CNC[C@H]32)c1` , please.
Response: 0.69

Request: Same lookup for `N#Cc1cncc(N2C[C@H]3CNC[C@H]32)c1` , please.
Response: 0.71

Request: Same lookup for `COc1cncc(N2C[C@@H]3CN[C@@H]3C2)c1` , please.
Response: 1.12

Request: Same lookup for `Brc1cncc(N2C[C@@H]3CNC[C@@H]32)c1` , please.
Response: 0.94
